These entries and their values trace back to patent US20240254227A1.

A collection of binders and their measured gMFI
# measured.on: T1, recombinant murine CD300LB overexpressed on BaF/3 cells (mouse, UniProt Q3U497 18-209)
# T1 construct: Cells carry pMXs-Myc-tagged muCD300LB together with FLAG-tagged DAP12; also called muCD300LB; BaF/3 overexpressing muCD300LB
# T1 sequence: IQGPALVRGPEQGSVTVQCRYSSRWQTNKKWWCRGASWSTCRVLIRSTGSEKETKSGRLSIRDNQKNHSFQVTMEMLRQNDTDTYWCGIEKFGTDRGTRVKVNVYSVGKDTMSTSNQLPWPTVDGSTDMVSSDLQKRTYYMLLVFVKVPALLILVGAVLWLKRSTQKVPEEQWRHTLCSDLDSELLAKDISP
# method.notes: flow cytometry, BaF/3 cells overexpressing muCD300LB
endpoint: gMFI

[
  {
    "binder": "anti-CD300LB antibody CD-14 (antibody, V domains shown) VH: QIQLVQSGPELKKPGETVKISCKASGYTFTDYSLHWVKQTPEKNLKWMAWINTETGAPTYADDFKGRFAFSLETSSNTAYLLINNLKNEDTATYFCALTMVNYWGQGTTLTVSS VL: DIVMTQSQKFMSTSVGDRVSVTCKASQNVGIRVAWHQQKPGQSPKTLIYSTSYRYSGVPDRFTGSGSGTEFILTISNVQSEDLAEYFCQQYNSYPYTFGGGTKLEIK",
    "value.measured": "19400 gMFI"
  },
  {
    "binder": "anti-CD300LB antibody CD-12 (antibody, V domains shown) VH: QIQLVQSGPELKKPGETVKISCKASGYTFTDYSMHWVRQAPGKGLKWMAWINTETGEATHADDFKGRFDFSLDTSASTAYLQIKNLKNEDTGIYFCVCYGSSYGMDYWGQGTSVTVSS VL: DIVLTQSPASLPVSLGQRATISCRASKSVRTSGASYMHWYQQKPGQPPKLLIYLASNLKSGVPTRFSGSGSGTDFTLNIHPVEEEDAATYYCQHNREVPPTFGGGTKLEIK",
    "value.measured": "9800 gMFI"
  },
  {
    "binder": "anti-CD300LB antibody CD-10 (antibody, V domains shown) VH: QVQLQQSGPELVRPGVSVKISCKGSGYTFTDYAMHWVKQSHVRSREWIGVIGTYNGHTNYNQKFKGKATMTVDKSSSTAYLELARLTSEDSAIYYCARSGSYYYSMDYWGQGTSVTVSS VL: QIVLTQSPAIMSASPGEKVTMTCSASSSVNYMHWYQQKSGTSPKRWIYDTSKLSSGVPARFSGSGSGTSYSLTISTMEAEDAATYYCQQWSSNPPMTFGGGTKLEIK",
    "value.measured": "6260 gMFI"
  },
  {
    "binder": "anti-CD300LB antibody CD-16 (antibody, V domains shown) VH: QIQLVQSGPELKKPGETVKISCKASGYTFTDYSMHWVKQAPGKGLKWMAWINTETGEPTYADDFRGRFAFSLETSGRTAYLEINNLRNEDTATYFCVTYGSSYGMAYWGQGTSVTVSS VL: DIVLTQSPASLAVSLGQRATISCRASKSVSRSGYSYLHWYQQKPGQPPKLLIYLASKLESGVPARFSGSGSGTDFTLNIHPVEAEDAATYYCQHNREIPPTFGGGTKLEIK",
    "value.measured": "8970 gMFI"
  },
  {
    "binder": "anti-CD300LB antibody CD-13 (antibody, V domains shown) VH: QIQLVQSGPELKKPGETVKISCKASGYTFTDYSMHWVKQAPGKGFKWMAWINTETGAPTHADDFRGRFAFSLETSASTAFLQISNLKTEDTATYFCVTFGKSYGMNYWGQGTSVTVSS VL: DIVLTQSPASLSVSLGQRATISCRASKSVGSSGSSYLHWYQQKPGQPPKLLIYLASNLESGVPARFSGSGSGTEFTLNIHPVEEEDAATYYCQHNAEVPPTFGGGTKLEIK",
    "value.measured": "22100 gMFI"
  },
  {
    "binder": "anti-CD300LB antibody CD-11 (antibody, V domains shown) VH: QIQLVQSGPEVKKPGETVKISCKASGYTLTDYSMHWVMQTPGTGLKWMAWMNTETGEPTYADDFKGRFAFSLETSAGTAYLQIDNLKNEDTATYFCATYGKSYGMKYWGQGTSVTVSS VL: DIVLTQSPPSLAVSLGQRATISCRATKSVSPYLHWYQQTPGQPPKLLIYLASNLDSGVPARFSGSGSGTDFTLNIHPVEEEDAATYYCQHNKELPPTFGGGTRLEIK",
    "value.measured": "10900 gMFI"
  },
  {
    "binder": "anti-CD300LB antibody CD-15 (antibody, V domains shown) VH: QIQLVQSGPELKKPGETVKISCQVSGYTFTDYSMHWLKQAPGKGLKWMAWINTETGESTYTDEFKGRFVFSLETSVRTAYLKINNLKNEDTATYFCGTYGSSYGMAYWGQGTSVTVSS VL: DIVLTQSPASLPVSLGQRATISCRASKSVSTSGSSYLHWYQQKPGQPPKLLIYLASKLESGVPARFRGSGSGTDFTLNIHPVEEEDAATYYCQHNREVPPTFGGGTKLEIK",
    "value.measured": "8330 gMFI"
  }
]
